Just for reference, patent US20240398942A1 is where these values come from.

Items are presented alongside their recorded IC50.
subject_of_test: T1, human CD40-Fc protein (human, biotinylated (sites not given) in the capture ELISA and the benchmark blocking ELISA; not biotinylated in the ligand blocking ELISA)
T1 construct: also called biotinylated human CD40-Fc
assay: competitive ELISA: human CD40-Fc coated, antibody titrated, blocked ligand biotinylated human CD40L-his (95 ng/mL), streptavidin-HRP, OD(450-630)
Please give a number only; it is taken to be in nM.

binder	IC50 / nM
mouse anti-CD40 monoclonal antibody C1H1 (antibody, V domains shown, Parent mouse antibody from a hybridoma; the mouse constant regions are not; also called Mouse C1H1) VH: EVKLVESGGGLVKPGASLKLSCAASGFTFSNYGISWVRQTSDKRLEWVASISSGGDNTYYPDNVKGRFTISRENAKNTLYLQMSSLKSEDTALYYCARAGEKAMDYWGQGTSVTVSS VL: DIVLTQSPVTLSVTPGDSVSLSCRASQTINNNLHWYQQKSHESPRLLIKYASQSISGIPSRFSGSGSGTDFTLSINSVETEDFGIYFCQQFSSWPLTFGAGTKLELK	6.46

Now for the binder whose IC50 we want.
### Prompt Sample humanized antibody huC1H1-V1 (antibody, human IgG2, kappa, V domains shown, Human IgG2 / kappa) VH: EVQLVESGGGLVKPGGSLRLSCAASGFTFSNYGISWVRQAPGKGLEWVASISSGGDNTYYPDNVKGRFTISRDNAKNSLYLQMNSLRAEDTAVYYCARAGEKAMDYWGQGTLVTVSS VL: EIVLTQSPATLSLSPGERATLSCRASQTINNNLHWYQQKPGQAPRLLIKYASQSISGIPARFSGSGSGTDFTLTISSLEPEDFAVYFCQQFSSWPLTFGGGTKVEIKR — what was its IC50?
### Response 7.91
